Tested on: 292921-168-R-J2-PDC KRAS tumor spheroid viability;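 note: drug exposure lasted seven days after spheroids formed for three days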
Experiment: Anticancer human tumor 292921-168-R-J2-PDC patient-derived pancreatic carcinoma cell line growth inhibition [KRAS2]; active = viability on the fitted dose curve at most 10% of control; inactive = the rest
Conditions: second compound 10 µM; first compound 1 µM; spheroids with HUVEC and MSC
Description: Multicellular complex tumor spheroid response to RAS pathway inhibitors in combination with a targeted agents in patient-derived cell lines with oncogenic KRAS variants from multiple cancer types A high-throughput screen of multi-cell type tumor spheroids was designed to identify active combinations of targeted small molecules and KRAS pathway inhibitors. […] Compounds. […] If the clinical Cmax for an agent had not been determined, the highest concentration tested was 10 microM. […]
Outcome codes: y = active, n = inactive

compound | labelValue
CC(=O)OC12COC1CC(O)C1(C)C(=O)C(O)C3=C(C)C(OC(=O)C(O)C(NC(=O)OC(C)(C)C)c4ccccc4)CC(O)(C(OC(=O)c4ccccc4)C21)C3(C)C (stereo not given) + CNCc1ccccc1-c1csc(C(C)Nc2nc(C)nc3cc(OC)c(OC)cc23)c1 | y
O=C(c1cc(Cc2n[nH]c(=O)c3ccccc23)ccc1F)N1CCN(C(=O)C2CC2)CC1 + C=CC(=O)N1CCN(c2nc(=O)n(-c3c(C)ccnc3C(C)C)c3nc(-c4c(O)cccc4F)c(F)cc23)C(C)C1 | n
CC(C)NCC(C(=O)N1CCN(c2ncnc3c2C(C)CC3O)CC1)c1ccc(Cl)cc1 (stereo not given) + COc1cc2nc(C)nc(NC(C)c3cc(N)cc(C(F)(F)F)c3)c2cc1OC1CCOC1 | n
COC(=O)c1ccc2c(C(=Nc3ccc(N(C)C(=O)CN4CCN(C)CC4)cc3)c3ccccc3)c(O)[nH]c2c1 + CC1OCC2(CCN(c3cnc(Sc4ccnc(N)c4Cl)c(N)n3)CC2)C1N | n
O=C(c1cc(Cc2n[nH]c(=O)c3ccccc23)ccc1F)N1CCN(C(=O)C2CC2)CC1 + CC1OCC2(CCN(c3cnc(Sc4ccnc(N)c4Cl)c(N)n3)CC2)C1N | n
